# TARGET OR TEST SYSTEM: T1, human DLL4 extracellular domain (human, UniProt Q9NR61 27-529)
# T1 construct: purified recombinant ECD; biotin-labelled or 6xHis-tagged depending on the assay; also called huDLL4 ECD; hu DLL4 ECD
# T1 sequence (Q9NR61 27-529 limits assumed): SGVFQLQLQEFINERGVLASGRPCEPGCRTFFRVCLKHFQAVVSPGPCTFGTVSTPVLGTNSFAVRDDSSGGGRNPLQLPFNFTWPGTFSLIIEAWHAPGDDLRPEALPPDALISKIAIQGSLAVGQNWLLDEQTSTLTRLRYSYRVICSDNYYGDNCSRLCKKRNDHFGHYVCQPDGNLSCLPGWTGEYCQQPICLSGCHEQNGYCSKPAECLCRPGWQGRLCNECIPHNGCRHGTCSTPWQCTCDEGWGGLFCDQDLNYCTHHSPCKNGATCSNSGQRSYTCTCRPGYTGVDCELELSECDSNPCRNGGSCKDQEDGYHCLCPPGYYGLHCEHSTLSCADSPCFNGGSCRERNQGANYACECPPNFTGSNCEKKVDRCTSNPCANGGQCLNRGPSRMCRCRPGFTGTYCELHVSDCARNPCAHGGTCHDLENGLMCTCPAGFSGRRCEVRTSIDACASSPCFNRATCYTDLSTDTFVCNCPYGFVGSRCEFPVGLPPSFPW
# METHOD SUMMARY: competition ELISA vs Notch-1
Consider the following binders and their measured pIC50 readings.
The quantity pIC50 is defined as the negative base-10 logarithm of the molar concentration.

// known answers, use as guide
BINDER	pIC50
h1A11.13 (antibody, V domains shown, humanized IgG; also called VH.2a/VL.1 1A11) VH: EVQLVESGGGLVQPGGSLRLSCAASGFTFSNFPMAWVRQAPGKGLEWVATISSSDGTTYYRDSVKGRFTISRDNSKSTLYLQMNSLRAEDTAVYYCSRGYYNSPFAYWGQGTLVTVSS VL: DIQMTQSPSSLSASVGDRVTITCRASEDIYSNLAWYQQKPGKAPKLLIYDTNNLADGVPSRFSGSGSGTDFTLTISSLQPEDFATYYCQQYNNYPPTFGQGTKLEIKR	9.52
h1A11.5 (antibody, V domains shown, humanized IgG; also called VH.1a/VL.1 1A11) VH: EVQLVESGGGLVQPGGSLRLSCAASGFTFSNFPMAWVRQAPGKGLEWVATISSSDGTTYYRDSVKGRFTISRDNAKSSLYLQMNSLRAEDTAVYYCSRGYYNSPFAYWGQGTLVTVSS VL: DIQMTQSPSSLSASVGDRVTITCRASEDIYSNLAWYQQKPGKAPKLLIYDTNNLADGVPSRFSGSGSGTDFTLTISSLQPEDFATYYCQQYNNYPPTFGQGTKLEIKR	9.52
h1A11.7 (antibody, V domains shown, humanized IgG; also called VH.1a/VL.1b 1A11) VH: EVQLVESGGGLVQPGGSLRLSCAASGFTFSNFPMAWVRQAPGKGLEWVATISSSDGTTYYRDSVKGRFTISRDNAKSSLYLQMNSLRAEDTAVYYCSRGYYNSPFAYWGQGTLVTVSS VL: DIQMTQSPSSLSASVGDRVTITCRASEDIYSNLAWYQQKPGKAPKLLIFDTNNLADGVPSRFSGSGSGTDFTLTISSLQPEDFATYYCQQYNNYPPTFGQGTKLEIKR	9.30
h1A11.9 (antibody, V domains shown, humanized IgG; also called VH.1b/VL.1 1A11) VH: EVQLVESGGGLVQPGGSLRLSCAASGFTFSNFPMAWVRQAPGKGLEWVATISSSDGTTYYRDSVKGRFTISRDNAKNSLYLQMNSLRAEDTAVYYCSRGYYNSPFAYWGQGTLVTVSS VL: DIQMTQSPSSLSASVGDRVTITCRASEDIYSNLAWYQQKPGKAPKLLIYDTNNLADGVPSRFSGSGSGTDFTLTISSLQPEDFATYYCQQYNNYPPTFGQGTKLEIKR	9.52
h1A11.6 (antibody, V domains shown, humanized IgG; also called VH.1a/VL.1a 1A11) VH: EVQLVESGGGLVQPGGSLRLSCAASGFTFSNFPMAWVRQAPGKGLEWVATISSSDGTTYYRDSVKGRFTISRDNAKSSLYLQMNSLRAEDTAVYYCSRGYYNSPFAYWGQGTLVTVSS VL: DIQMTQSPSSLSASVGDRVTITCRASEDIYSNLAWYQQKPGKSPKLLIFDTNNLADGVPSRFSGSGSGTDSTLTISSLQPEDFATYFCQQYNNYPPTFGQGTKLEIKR	9.40

Below: the item to evaluate.
Sample 1A11 rat anti-DLL4 monoclonal antibody (antibody, rat IgG1, V domains shown, rat IgG1/K hybridoma mAb; also called MC13-1A11.2E1; 1A11 (rat mAb)) VH: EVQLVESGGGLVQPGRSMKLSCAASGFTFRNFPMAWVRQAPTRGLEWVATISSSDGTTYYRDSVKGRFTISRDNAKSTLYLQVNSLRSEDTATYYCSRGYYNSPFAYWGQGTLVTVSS VL: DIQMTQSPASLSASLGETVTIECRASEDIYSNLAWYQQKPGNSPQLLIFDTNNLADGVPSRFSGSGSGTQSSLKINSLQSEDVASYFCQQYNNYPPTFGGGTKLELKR ; pIC50 observed: 9.30
